- target_entity: EPHA7 (human)
- procedure_details: radiometric filter-binding kinase assay, Kinase HotSpot
- experimental_conditions: compound 0.5 µM; ATP 10 µM
Known residual activity of a selection of compounds
Your answer is read as %, so omit the unit and give the number.

// known answers, use as guide
Cc1nc2cc3nc(-c4cccs4)cnc3cc2n1C
92.5
CN(C)C[C@H]1CCn2c(c(C3=C(c4cn(C)c5ccccc45)C(=O)NC3=O)c3ccccc32)C1
96.9
O=C(CCCc1ccc(-c2ccccc2F)cc1)Nc1ccc(O)cc1
104
O=C1NC(=O)C(c2cn(CCCO)c3ncccc23)=C1c1cnccn1
105

Read off the recorded residual activity for "Cn1cnc2cc3c(Nc4cccc(Br)c4)ncnc3cc21" 72

Read off the recorded residual activity for "CN([C@@H](Cc1ccc(OS(=O)(=O)c2cccc3cnccc23)cc1)C(=O)N1CCN(c2ccccc2)CC1)S(=O)(=O)c1cccc2cnccc12" 102

Read off the recorded residual activity for "CCN(CC)CCCCN1c2ccccc2Oc2ccc(Cl)cc21" 102

Read off the recorded residual activity for "CCn1cnc2c(Nc3cccc(Cl)c3)nc(N[C@@H]3CCCC[C@@H]3N)nc21" 87.6

Read off the recorded residual activity for "Nc1nccc(-c2c(-c3ccc(F)cc3)ncn2C2CCNCC2)n1" 94

----------
Known residual activity of a selection of compounds
- target_entity: PRKG2 (human) (UniProt Q13237)
- Sequence (Q13237 whole entry, looked up): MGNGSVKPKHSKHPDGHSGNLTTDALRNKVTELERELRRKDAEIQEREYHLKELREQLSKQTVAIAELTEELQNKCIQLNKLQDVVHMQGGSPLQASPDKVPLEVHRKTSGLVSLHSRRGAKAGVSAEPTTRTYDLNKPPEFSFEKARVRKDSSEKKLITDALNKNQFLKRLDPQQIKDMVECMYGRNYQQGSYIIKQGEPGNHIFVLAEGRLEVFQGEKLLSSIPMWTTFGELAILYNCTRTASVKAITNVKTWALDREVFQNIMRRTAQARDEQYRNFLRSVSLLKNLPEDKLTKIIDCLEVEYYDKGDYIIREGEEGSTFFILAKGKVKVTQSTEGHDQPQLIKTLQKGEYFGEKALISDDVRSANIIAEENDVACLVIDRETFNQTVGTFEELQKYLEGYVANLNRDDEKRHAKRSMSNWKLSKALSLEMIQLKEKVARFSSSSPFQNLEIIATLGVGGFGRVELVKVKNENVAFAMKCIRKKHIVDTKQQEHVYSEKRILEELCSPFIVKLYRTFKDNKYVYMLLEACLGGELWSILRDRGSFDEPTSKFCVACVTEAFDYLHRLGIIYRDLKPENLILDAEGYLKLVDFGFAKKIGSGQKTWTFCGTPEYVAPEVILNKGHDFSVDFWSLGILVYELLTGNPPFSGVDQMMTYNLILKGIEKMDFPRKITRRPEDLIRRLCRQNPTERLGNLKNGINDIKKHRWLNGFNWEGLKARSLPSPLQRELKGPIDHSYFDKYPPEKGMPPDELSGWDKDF
- procedure_details: radiometric filter-binding kinase assay, Kinase HotSpot
- experimental_conditions: compound 0.5 µM; ATP 10 µM
Your answer is read as %, so omit the unit and give the number.

// known answers, use as guide
CC(=O)O/N=C1\C(=C2\C(=O)Nc3cc(Br)ccc32)Nc2ccccc21
91.4
Cc1nc2cc3nc(-c4cccs4)cnc3cc2n1C
87.7
COc1cc2ncnc(N3CCN(C(=O)Nc4ccc(Oc5ccccc5)cc4)CC3)c2cc1OC
97.5
Cn1sc(=O)n(Cc2ccccc2)c1=O
108
CCn1cnc2c(Nc3cccc(Cl)c3)nc(N[C@@H]3CCCC[C@@H]3N)nc21
74.3

Please report the measured residual activity for "O=C(CCCc1ccc(-c2ccccc2F)cc1)Nc1ccc(O)cc1" tested on PRKG2 (human) (UniProt Q13237). 102

----------
- target_entity: PTK6 (human) (UniProt Q13882)
- Sequence (Q13882 whole entry, looked up): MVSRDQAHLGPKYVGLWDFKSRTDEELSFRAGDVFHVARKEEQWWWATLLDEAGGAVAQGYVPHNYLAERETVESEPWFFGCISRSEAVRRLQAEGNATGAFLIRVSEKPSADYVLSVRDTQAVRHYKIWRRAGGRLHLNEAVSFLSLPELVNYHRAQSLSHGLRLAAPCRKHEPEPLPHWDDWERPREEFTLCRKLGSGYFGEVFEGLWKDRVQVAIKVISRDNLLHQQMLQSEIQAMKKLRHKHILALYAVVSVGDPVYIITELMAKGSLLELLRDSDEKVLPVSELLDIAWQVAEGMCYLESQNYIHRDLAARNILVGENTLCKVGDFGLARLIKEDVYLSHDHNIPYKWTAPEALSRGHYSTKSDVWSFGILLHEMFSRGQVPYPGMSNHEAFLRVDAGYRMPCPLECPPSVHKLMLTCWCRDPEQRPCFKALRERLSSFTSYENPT
- procedure_details: radiometric filter-binding kinase assay, Kinase HotSpot
- experimental_conditions: compound 0.5 µM; ATP 10 µM
Known residual activity of a selection of molecules
Your answer is read as %, so omit the unit and give the number.

COc1ccc(CNC(=O)Nc2ncc([N+](=O)[O-])s2)cc1
99.6

Read off the recorded residual activity for "Cc1nc2cc3nc(-c4cccs4)cnc3cc2n1C" 88.6

Read off the recorded residual activity for "CC(C)[C@H](CO)Nc1nc(Nc2cc(N)cc(Cl)c2)c2ncn(C(C)C)c2n1" 85.6

Read off the recorded residual activity for "Nc1nnc2[nH]c3ccccc3nc1-2" 84.1

----------
- target_entity: TNK2 (human) (UniProt Q07912)
- Sequence (Q07912 whole entry, looked up): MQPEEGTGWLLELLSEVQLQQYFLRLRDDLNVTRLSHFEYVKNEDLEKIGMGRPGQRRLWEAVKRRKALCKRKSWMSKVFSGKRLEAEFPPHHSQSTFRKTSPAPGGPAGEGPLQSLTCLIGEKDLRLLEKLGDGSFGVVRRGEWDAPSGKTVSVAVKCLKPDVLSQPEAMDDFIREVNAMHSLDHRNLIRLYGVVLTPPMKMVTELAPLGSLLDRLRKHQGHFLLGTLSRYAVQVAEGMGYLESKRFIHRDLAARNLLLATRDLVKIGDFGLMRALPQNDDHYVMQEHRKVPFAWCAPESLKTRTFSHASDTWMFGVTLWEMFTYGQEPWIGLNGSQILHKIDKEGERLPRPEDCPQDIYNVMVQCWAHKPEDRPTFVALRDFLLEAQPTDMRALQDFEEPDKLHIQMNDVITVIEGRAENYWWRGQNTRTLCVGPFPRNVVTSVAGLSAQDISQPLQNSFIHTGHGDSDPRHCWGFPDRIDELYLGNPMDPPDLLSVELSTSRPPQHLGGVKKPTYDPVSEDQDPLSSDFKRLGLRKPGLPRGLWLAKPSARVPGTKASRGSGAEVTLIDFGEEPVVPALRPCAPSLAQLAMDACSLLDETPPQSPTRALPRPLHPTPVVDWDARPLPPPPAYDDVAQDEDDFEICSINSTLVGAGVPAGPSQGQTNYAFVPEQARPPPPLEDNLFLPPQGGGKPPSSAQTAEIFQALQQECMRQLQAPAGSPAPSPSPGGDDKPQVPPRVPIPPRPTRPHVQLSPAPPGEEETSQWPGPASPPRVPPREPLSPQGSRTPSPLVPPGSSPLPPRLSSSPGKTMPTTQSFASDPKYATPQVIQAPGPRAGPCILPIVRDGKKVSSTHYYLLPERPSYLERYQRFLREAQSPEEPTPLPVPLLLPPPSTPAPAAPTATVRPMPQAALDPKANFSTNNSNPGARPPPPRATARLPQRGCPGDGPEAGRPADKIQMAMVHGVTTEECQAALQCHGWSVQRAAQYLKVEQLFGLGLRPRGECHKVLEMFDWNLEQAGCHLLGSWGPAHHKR
- procedure_details: radiometric filter-binding kinase assay, Kinase HotSpot
- experimental_conditions: compound 0.5 µM; ATP 10 µM
The threshold is 90%. Values of residual activity beneath it are tagged fulfilled; values meeting or exceeding it are tagged not fulfilled.

Reference set (4 entries):
CN([C@@H](Cc1ccc(OS(=O)(=O)c2cccc3cnccc23)cc1)C(=O)N1CCN(c2ccccc2)CC1)S(=O)(=O)c1cccc2cnccc12
not fulfilled
Nc1nnc2[nH]c3ccccc3nc1-2
not fulfilled
Cn1cnc2cc3c(Nc4cccc(Br)c4)ncnc3cc21
fulfilled
O=C1Nc2ccccc2/C1=C1\Nc2ccccc2\C1=N/O
fulfilled

Is residual activity of "O=C1Cc2c([nH]c3ccc(Br)cc23)-c2ccccc2N1" strictly below 90%? fulfilled

Is residual activity of "CCN(CC)CCCCN1c2ccccc2Oc2ccc(Cl)cc21" strictly below 90%? not fulfilled

Is residual activity of "Cn1sc(=O)n(Cc2ccccc2)c1=O" strictly below 90%? not fulfilled

----------
- target_entity: CDK1 CCNA2 (human) (UniProt P06493+P20248)
- Sequence (P06493 whole entry, looked up): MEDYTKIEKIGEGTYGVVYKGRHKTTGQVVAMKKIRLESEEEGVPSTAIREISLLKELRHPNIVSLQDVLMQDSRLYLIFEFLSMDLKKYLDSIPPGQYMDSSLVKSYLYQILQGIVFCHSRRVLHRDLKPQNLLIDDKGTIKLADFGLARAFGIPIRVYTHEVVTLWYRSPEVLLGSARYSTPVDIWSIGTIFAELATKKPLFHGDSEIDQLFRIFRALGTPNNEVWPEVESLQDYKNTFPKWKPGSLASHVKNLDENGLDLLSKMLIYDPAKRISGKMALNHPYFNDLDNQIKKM
- Sequence (P20248 whole entry, looked up): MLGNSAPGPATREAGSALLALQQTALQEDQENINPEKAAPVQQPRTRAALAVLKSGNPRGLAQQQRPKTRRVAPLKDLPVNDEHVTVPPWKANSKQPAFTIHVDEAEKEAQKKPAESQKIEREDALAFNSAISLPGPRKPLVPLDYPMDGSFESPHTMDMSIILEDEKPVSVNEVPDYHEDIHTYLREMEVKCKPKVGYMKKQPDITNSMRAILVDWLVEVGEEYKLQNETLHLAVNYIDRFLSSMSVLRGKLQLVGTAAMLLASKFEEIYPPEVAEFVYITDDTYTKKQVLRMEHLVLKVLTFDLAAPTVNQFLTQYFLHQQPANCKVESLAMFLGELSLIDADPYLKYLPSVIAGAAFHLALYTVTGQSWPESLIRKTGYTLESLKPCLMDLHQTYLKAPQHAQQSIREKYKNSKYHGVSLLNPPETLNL
- procedure_details: radiometric filter-binding kinase assay, Kinase HotSpot
- experimental_conditions: compound 0.5 µM; ATP 10 µM
measurement_name: residual activity (%)
Your answer is read as %, so omit the unit and give the number.

// known answers, use as guide
O=C1c2ccccc2-[n+]2ccc3c([nH]c4ccccc43)c21
68
Cn1sc(=O)n(Cc2ccccc2)c1=O
104

Read off the recorded residual activity for "O=C1NC(=O)/C(=C\c2ccc3nccnc3c2)S1" 90.7

Read off the recorded residual activity for "Nc1nccc(-c2c(-c3ccc(F)cc3)ncn2C2CCNCC2)n1" 92.7

Read off the recorded residual activity for "c1cc(-c2cnn3cc(-c4ccc(OCCN5CCCCC5)cc4)cnc23)ccn1" 92.2

Read off the recorded residual activity for "O=C1Cc2c([nH]c3ccc(Br)cc23)-c2ccccc2N1" 88.5

Read off the recorded residual activity for "CC(C)c1nn(-c2c(Cl)cccc2Cl)c2nc(Cc3ccc(OCCO)cc3)nc(O)c12" 7.71

Read off the recorded residual activity for "Cn1nc2c3c(cccc31)C(=O)c1ccccc1-2" 88

Read off the recorded residual activity for "Cc1nc2cc3nc(-c4cccs4)cnc3cc2n1C" 102

Read off the recorded residual activity for "O=C(Nc1cccc(Nc2cc(Nc3cccc(C(F)(F)F)c3)ncn2)c1)C1CC1" 97.9

Read off the recorded residual activity for "Cn1cnc2cc3c(Nc4cccc(Br)c4)ncnc3cc21" 95.8

----------
- target_entity: FGFR2 (human) (UniProt P21802)
- Sequence (P21802 whole entry, looked up): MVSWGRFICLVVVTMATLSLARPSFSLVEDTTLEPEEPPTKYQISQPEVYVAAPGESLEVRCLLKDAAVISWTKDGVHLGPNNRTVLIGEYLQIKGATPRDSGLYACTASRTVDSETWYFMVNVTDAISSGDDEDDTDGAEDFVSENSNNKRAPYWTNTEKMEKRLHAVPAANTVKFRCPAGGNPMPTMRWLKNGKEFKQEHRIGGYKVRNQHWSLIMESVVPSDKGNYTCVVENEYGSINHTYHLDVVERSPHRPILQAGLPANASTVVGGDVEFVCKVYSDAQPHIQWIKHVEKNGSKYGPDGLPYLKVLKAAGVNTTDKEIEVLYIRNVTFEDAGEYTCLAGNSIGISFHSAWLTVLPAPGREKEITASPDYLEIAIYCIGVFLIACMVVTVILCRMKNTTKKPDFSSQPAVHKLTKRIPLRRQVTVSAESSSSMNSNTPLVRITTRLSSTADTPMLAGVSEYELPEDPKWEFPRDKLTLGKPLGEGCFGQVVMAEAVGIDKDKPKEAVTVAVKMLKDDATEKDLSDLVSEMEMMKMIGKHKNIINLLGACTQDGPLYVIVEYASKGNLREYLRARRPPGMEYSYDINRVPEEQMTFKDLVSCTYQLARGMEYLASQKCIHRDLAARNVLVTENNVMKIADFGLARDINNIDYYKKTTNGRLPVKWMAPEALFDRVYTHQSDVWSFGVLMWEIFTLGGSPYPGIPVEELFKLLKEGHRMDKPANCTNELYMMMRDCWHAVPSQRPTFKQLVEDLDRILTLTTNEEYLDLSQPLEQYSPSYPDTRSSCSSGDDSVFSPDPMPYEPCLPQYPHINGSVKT
- procedure_details: radiometric filter-binding kinase assay, Kinase HotSpot
- experimental_conditions: compound 0.5 µM; ATP 10 µM
measurement_name: residual activity (%)
Your answer is read as %, so omit the unit and give the number.

// known answers, use as guide
COc1cc2ncc(-c3ccccc3)nc2cc1OC
103
COc1cc2ncnc(N3CCN(C(=O)Nc4ccc(Oc5ccccc5)cc4)CC3)c2cc1OC
92.4
O=C(CCCc1ccc(-c2ccccc2F)cc1)Nc1ccc(O)cc1
102
CN([C@@H](Cc1ccc(OS(=O)(=O)c2cccc3cnccc23)cc1)C(=O)N1CCN(c2ccccc2)CC1)S(=O)(=O)c1cccc2cnccc12
98.1

Then this compound:
Please report the measured residual activity for "CC(C)c1nn(-c2c(Cl)cccc2Cl)c2nc(Cc3ccc(OCCO)cc3)nc(O)c12" tested on FGFR2 (human) (UniProt P21802). 97.5

----------
- target_entity: ADRBK1 (human)
- procedure_details: radiometric filter-binding kinase assay, Kinase HotSpot
- experimental_conditions: compound 0.5 µM; ATP 10 µM
measurement_name: residual activity (%)
Your answer is read as %, so omit the unit and give the number.

// known answers, use as guide
CCN(CC)CCCCN1c2ccccc2Oc2ccc(Cl)cc21
96.5
CC(C)[C@H](CO)Nc1nc(Nc2cc(N)cc(Cl)c2)c2ncn(C(C)C)c2n1
83
COc1cc2ncnc(N3CCN(C(=O)Nc4ccc(Oc5ccccc5)cc4)CC3)c2cc1OC
96.7
CC(=O)O/N=C1\C(=C2\C(=O)Nc3cc(Br)ccc32)Nc2ccccc21
108
O=C1NC(=O)C(c2cn(CCCO)c3ncccc23)=C1c1cnccn1
114

Read off the recorded residual activity for "COc1ccc(CNC(=O)Nc2ncc([N+](=O)[O-])s2)cc1" 96.4

Read off the recorded residual activity for "O=C1Cc2c([nH]c3ccc(Br)cc23)-c2ccccc2N1" 103

Read off the recorded residual activity for "O=C1NC(=O)C(c2c[nH]c3ccccc23)=C1c1c[nH]c2ccccc12" 98.4

Read off the recorded residual activity for "CN([C@@H](Cc1ccc(OS(=O)(=O)c2cccc3cnccc23)cc1)C(=O)N1CCN(c2ccccc2)CC1)S(=O)(=O)c1cccc2cnccc12" 97.5

Read off the recorded residual activity for "O=C1NC(=O)/C(=C\c2ccc3nccnc3c2)S1" 93.3

Read off the recorded residual activity for "Cn1cnc2cc3c(Nc4cccc(Br)c4)ncnc3cc21" 100

Read off the recorded residual activity for "Nc1nccc(-c2c(-c3ccc(F)cc3)ncn2C2CCNCC2)n1" 99.7

Read off the recorded residual activity for "Cn1sc(=O)n(Cc2ccccc2)c1=O" 96.7

Read off the recorded residual activity for "Cn1nc2c3c(cccc31)C(=O)c1ccccc1-2" 103

Read off the recorded residual activity for "O=C(O)/C=C/c1cc(Br)c(Br)c(Br)c1Br" 97.9

Read off the recorded residual activity for O=C1Nc2ccccc2/C1=C1/Nc2ccccc2/C1=N\OCCC(O)CO (stereo unspecified) 101

----------
- target_entity: PTK6 (human)
- procedure_details: radiometric filter-binding kinase assay, Kinase HotSpot
- experimental_conditions: compound 0.5 µM; ATP 10 µM
measurement_name: residual activity
Answer with the value and then the unit.

Cn1sc(=O)n(Cc2ccccc2)c1=O
96.7%
O=C(Nc1cccc(Nc2cc(Nc3cccc(C(F)(F)F)c3)ncn2)c1)C1CC1
98.4%
O=C1Nc2ccccc2/C1=C1\Nc2ccccc2\C1=N/O
97.2%

Read off the recorded residual activity for "CN([C@@H](Cc1ccc(OS(=O)(=O)c2cccc3cnccc23)cc1)C(=O)N1CCN(c2ccccc2)CC1)S(=O)(=O)c1cccc2cnccc12" 89.7%
